B1: TPR t1 (parent)
chain: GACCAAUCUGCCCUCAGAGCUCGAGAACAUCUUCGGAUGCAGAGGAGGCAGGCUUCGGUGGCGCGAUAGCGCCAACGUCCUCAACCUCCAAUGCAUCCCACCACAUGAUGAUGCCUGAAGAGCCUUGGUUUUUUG

# Variants of: B1
# assay.procedure: polymerase ribozyme fitness, log enrichment relative to wild type (log ratio); higher = more active; in vitro selection for triplet polymerase activity
readout.name: polymerase ribozyme fitness (log ratio)
No unit in the answer, only the number.

C13U U112A C123A G128C: -1.12
G58A C123G: 2.11
G61A U116A: -2.68
C34A G60A A103G C124U G135A: -5.23

Param item = A6C G35A ; retrieve measured polymerase ribozyme fitness (log ratio).
-4.12

// returns reported polymerase ribozyme fitness (log ratio) for input C12U A18G C20U C94U G117U
0.203

What measured polymerase ribozyme fitness (log ratio) goes with C62G G120U ?
-1.64

What value of polymerase ribozyme fitness (log ratio) has been recorded for this entry: G42U C53U
-1.85

Query (variant): G60A G93A C99U ; field requested: polymerase ribozyme fitness (log ratio)
-5.15

Value lookup for polymerase ribozyme fitness (log ratio); key = C8G G35A
-2.23

Recorded polymerase ribozyme fitness (log ratio) of G10U U87A U92C A121G U132C , please.
1.22
